- Tested on: Staphylococcus aureus 209-P
Where a name gives a salt, the structure may show the parent alone.
ENDPOINT: MIC (µg/mL)

[I] O=C(O)C1=C(CSc2nnc[nH]2)CS[C@@H]2[C@H](NC(=O)[C@H](NC(=O)c3coc4cc(O)c(O)cc4c3=O)c3ccc(O)cc3)C(=O)N12 [Example 22]
[II] O=C(O)C1=C(CSc2nncs2)CS[C@@H]2[C@H](NC(=O)[C@H](NC(=O)c3coc4cc(O)c(O)cc4c3=O)c3ccc(O)cc3)C(=O)N12 [Example 19]
[III] CC(=O)Oc1cc2occ(C(=O)N[C@@H](C(=O)N[C@@H]3C(=O)N4C(C(=O)O)=C(CSc5nnc(C)s5)CS[C@H]34)c3ccccc3)c(=O)c2cc1OC(C)=O [Example 6]
[IV] CC(=O)Oc1cc2c(=O)c(C(=O)N[C@@H](C(=O)N[C@@H]3C(=O)N4C(C(=O)O)=C(CSc5nnnn5CC(=O)O)CS[C@H]34)c3ccc(O)cc3)coc2c(OC(C)=O)c1OC(C)=O [Example 31]
[V] Cc1nnc(SCC2=C(C(=O)O)N3C(=O)[C@@H](NC(=O)Cn4cnnn4)[C@H]3SC2)s1 [Sodium salt of Cefazolin, reference compound]
Exercise: Descending by MIC please, for everything listed above. The reply should contain the labels ordered as requested.
Solution: IV, I, III, II, V

[a] Cn1nnnc1SCC1=C(C(=O)O)N2C(=O)[C@@H](NC(=O)[C@H](NC(=O)c3coc4cc(O)c(O)cc4c3=O)c3ccc(O)cc3)[C@H]2SC1 [Example 3]
[b] CC(=O)Oc1cc2c(=O)c(C(=O)N[C@@H](C(=O)N[C@@H]3C(=O)N4C(C(=O)O)=C(CSc5nnnn5C)CS[C@H]34)c3ccc(O)cc3)coc2c(OC(C)=O)c1OC(C)=O [Example 29]
Exercise: API: POST /compare with a and b ; response names the item with higher MIC. Identify your pick by its label.
Solution: b
(b: 1.56 µg/mL, a: 0.8 µg/mL)

[I] O=C(O)C1=C(CSc2ncccn2)CS[C@@H]2[C@H](NC(=O)[C@H](NC(=O)c3coc4cc(O)c(O)cc4c3=O)c3ccc(O)cc3)C(=O)N12 [Example 26]
[II] CN(C)CCn1nnnc1SCC1=C(C(=O)O)N2C(=O)[C@@H](NC(=O)[C@H](NC(=O)c3coc4cc(O)c(O)cc4c3=O)c3ccc(O)cc3)[C@H]2SC1 [Example 21]
Exercise: Which has the smaller recorded MIC, I or II ? Mark your answer with the label of the selected entry.
Solution: I
(I: 0.8 µg/mL, II: 1.56 µg/mL)

[P] CCn1nnnc1SCC1=C(C(=O)O)N2C(=O)[C@@H](NC(=O)[C@H](NC(=O)c3coc4cc(O)c(O)cc4c3=O)c3ccc(O)cc3)[C@H]2SC1 [Example 20]
[Q] Cc1nnc(SCC2=C(C(=O)O)N3C(=O)[C@@H](NC(=O)[C@H](NC(=O)c4coc5cc(O)c(O)cc5c4=O)c4ccccc4)[C@H]3SC2)s1 [Example 2]
Exercise: Which of the two items, P and Q , has the greater recorded MIC? I would appreciate it if you answered with the label of your choice.
Solution: Q
